Target: Prostaglandin G/H synthase 2 (Homo sapiens);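 note: in vitro test using recombinant human COX-2 enzyme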
Sequence (whole entry): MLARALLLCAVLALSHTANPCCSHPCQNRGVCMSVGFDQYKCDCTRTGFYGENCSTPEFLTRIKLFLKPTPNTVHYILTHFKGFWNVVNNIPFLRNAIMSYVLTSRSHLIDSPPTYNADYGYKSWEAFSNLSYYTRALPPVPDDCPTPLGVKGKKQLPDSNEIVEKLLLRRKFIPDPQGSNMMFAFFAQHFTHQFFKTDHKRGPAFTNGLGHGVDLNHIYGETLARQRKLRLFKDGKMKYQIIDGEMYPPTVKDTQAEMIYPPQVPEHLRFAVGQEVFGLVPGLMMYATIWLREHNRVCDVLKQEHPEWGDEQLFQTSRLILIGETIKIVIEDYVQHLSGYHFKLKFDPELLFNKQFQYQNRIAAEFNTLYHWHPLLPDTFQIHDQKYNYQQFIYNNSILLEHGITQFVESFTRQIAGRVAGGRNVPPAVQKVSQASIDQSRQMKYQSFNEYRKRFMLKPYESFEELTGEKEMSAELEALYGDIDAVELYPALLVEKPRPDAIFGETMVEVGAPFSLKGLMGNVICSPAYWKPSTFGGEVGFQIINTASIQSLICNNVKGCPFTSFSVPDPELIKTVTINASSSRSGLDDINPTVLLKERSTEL
Conditions: at 10 µM
Description: In vitro percent Inhibition of recombinant human prostaglandin G/H synthase 2 (COX-2) at a concentration of 10 uM
recorded-metric: inhibition (%)

INSERT INTO assay_data (compound, target_or_test_system, recorded_metric, units_symbol, number) VALUES
  ('CS(=O)(=O)c1ccc(-c2cc3c(cc2CC2CCCCC2)OCO3)cc1', 'Prostaglandin G/H synthase 2 (Homo sapiens)', 'inhibition', '%', 100),
  ('CS(=O)(=O)c1ccc(-c2cc3c(cc2Cc2ccc(F)cc2)OCO3)cc1', 'Prostaglandin G/H synthase 2 (Homo sapiens)', 'inhibition', '%', 0),
  ('CS(=O)(=O)c1ccc(-c2cc3c(cc2C(=O)N2CCOCC2)OCO3)cc1', 'Prostaglandin G/H synthase 2 (Homo sapiens)', 'inhibition', '%', 10);

(a) CS(=O)(=O)c1ccc(-c2cc3c(cc2CN2CCC(O)CC2)OCO3)cc1
(b) O=S(=O)(CF)c1ccc(-c2cc3c(cc2Cc2ccccc2)OCO3)cc1
(c) CN1CCN(C(=O)c2cc3c(cc2-c2ccc(S(C)(=O)=O)cc2)OCO3)CC1
Prompt: hey, can you rank those compounds up there by inhibition? biggest number first please Reply with the labels, ordered as the question asks.
Response: b, a, c
(b: 50%, a: 25%, c: 15%)

(P) Cc1cccnc1C(=O)c1cc2c(cc1-c1ccc(S(C)(=O)=O)cc1)OCO2
(Q) CS(=O)(=O)c1ccc(-c2cc3c(cc2CN2CCCC(CO)C2)OCO3)cc1 (stereo not given)
(R) CS(=O)(=O)c1ccc(-c2cc3c(cc2CC2CCCC2)OCO3)cc1
Prompt: hey, can you rank those compounds up there by inhibition? biggest number first please Reply with the labels, ordered as the question asks.
Response: R, Q, P
(R: 70%, Q: 30%, P: 10%)

Data provenance: ChEMBL document CHEMBL1145927
